The values you see were collected from patent US4857513A.

// values below are reported inhibition at 1 µM
Tested on: Neonatal calvaria (hPTH (1-34)-treated)
experiment: Inhibition of hPTH (1-34)-stimulated bone resorption in cultured neonatal rat calvaria (calcium accumulation in medium at 6 days)
Assay type: cell-based, rat (Wistar)
run conditions: 144 h, Dose 1 × 10^-6 M, hPTH (1-34) 1×10^-8 M, 37° C.

Worked examples follow.
In [3]: df
Out[3]:
                                   molecule  assay_result
0  O=P(O)(O)C(C(=S)Nc1ccccc1)P(=O)(O)O [Test Compound (a)]         66.3%
1  COc1ccc(NC(=S)C(P(=O)(O)O)P(=O)(O)O)cc1C(F)(F)F [Test Compound (h)]         77.7%
2  CS(=O)(=O)Nc1cccc(NC(=S)C(P(=O)(O)O)P(=O)(O)O)c1 [Test Compound (l)]         52.4%
3  O=C(NC(P(=O)(O)O)P(=O)(O)O)c1ccc2ccccc2n1 [Test Compound (j)]         53.8%

Suppose we examine the molecule O=P(O)(O)C(C(=S)Nc1ccc(Cl)cc1)P(=O)(O)O [Test Compound (c)] ; what inhibition at 1 µM value has been reported?
57%

Given O=P(O)(O)C(C(=S)Nc1cc2ccccc2s1)P(=O)(O)O [Test Compound (d)] , state its recorded inhibition at 1 µM.
59.7%

Find the recorded inhibition at 1 µM belonging to O=P(O)(O)C(C(=S)Nc1ccc(Cl)c(C(F)(F)F)c1)P(=O)(O)O [Test Compound (g)] and report it.
112%

GET /values?readout=inhibition at 1 µM&item= O=C(Nc1ccc(Cl)cc1)C(P(=O)(O)O)P(=O)(O)O [Test Compound (b)]
56.9%

Reported inhibition at 1 µM, molecule O=P(O)(O)C(C(=S)Nc1cccc(C(F)(F)F)c1)P(=O)(O)O [Test Compound (f)] : ____
68.9%

What measured inhibition at 1 µM goes with O=P(O)(O)C(C(=S)Nc1ccc(C(F)(F)F)cc1)P(=O)(O)O [Test Compound (e)] ?
65.9%

Reported inhibition at 1 µM, molecule O=P(O)(O)C(NS(=O)(=O)c1ccc(Cl)cc1)P(=O)(O)O [Test Compound (k)] : ____
71%
